- system_under_test: Histone deacetylase
- protocol: Inhibitory activity against histone deacetylase (HDAC) enzyme obtained from H1299 human lung carcinoma cell lysates
assay_endpoint: IC50

{"smiles_string": "O=C(/C=C/c1ccc(CN2CCc3c([nH]c4ccccc34)C2)cc1)NO", "system_under_test": "Histone deacetylase", "result": "0.118 µM"}
{"smiles_string": "O=C(/C=C/c1ccc(CN2CCC(c3c[nH]c4ccccc34)CC2)cc1)NO", "system_under_test": "Histone deacetylase", "result": "0.053 µM"}
{"smiles_string": "O=C(/C=C/c1ccc(CN[C@@H](CO)Cc2c[nH]c3ccccc23)cc1)NO", "system_under_test": "Histone deacetylase", "result": "0.04 µM"}
{"smiles_string": "O=C(/C=C/c1ccc(CN(CCc2c[nH]c3ccccc23)C2CCOCC2)cc1)NO", "system_under_test": "Histone deacetylase", "result": "0.01 µM"}
{"smiles_string": "COc1ccc2[nH]cc(CCNCc3ccc(/C=C/C(=O)NO)cc3)c2c1", "system_under_test": "Histone deacetylase", "result": "0.014 µM"}

---

Consider the following compounds and their measured IC50 readings.
- system_under_test: Histone deacetylase
- protocol: Inhibitory activity against histone deacetylase (HDAC) enzyme obtained from H1299 human lung carcinoma cell lysates
assay_endpoint: IC50 (nM)

{"compound": "O=C(/C=C/c1ccc(CNCCc2c[nH]c3ccc(F)cc23)cc1)NO", "units": "nM", "numeric_result": 14}
{"compound": "O=C(/C=C/c1ccc(CNCCCc2ccccc2)cc1)NO", "units": "nM", "numeric_result": 150}
{"compound": "O=C(/C=C/c1ccc(CNCCc2coc3ccccc23)cc1)NO", "units": "nM", "numeric_result": 16}
{"compound": "O=C(/C=C/c1ccc(CNCCOc2ccccc2)cc1)NO", "units": "nM", "numeric_result": 69}
{"compound": "O=C(/C=C/c1ccc(CN[C@H](CO)Cc2c[nH]c3ccccc23)cc1)NO", "units": "nM", "numeric_result": 27}
{"compound": "O=C(/C=C/c1ccc(CN(CCc2c[nH]c3ccccc23)C(CO)CO)cc1)NO", "units": "nM", "numeric_result": 52}
{"compound": "O=C(/C=C/c1ccc(CNCCn2c3ccccc3c3ccccc32)cc1)NO", "units": "nM", "numeric_result": 66}
{"compound": "O=C(/C=C/c1ccc(CN(CCCc2ccccc2)Cc2ccccn2)cc1)NO", "units": "nM", "numeric_result": 278}
{"compound": "Cc1nc2ccccc2n1CCNCc1ccc(/C=C/C(=O)NO)cc1", "units": "nM", "numeric_result": 38}
{"compound": "CC(NCCc1c[nH]c2ccccc12)c1ccc(/C=C/C(=O)NO)cc1 (stereo unspecified)", "units": "nM", "numeric_result": 23}
{"compound": "O=C(/C=C/c1ccc(CN(CCc2c[nH]c3ccccc23)Cc2ccccc2)cc1)NO", "units": "nM", "numeric_result": 85}
